Tested on: Hs-578T
test-protocol: NCI tumour cell line growth inhibition, 48 h
Active and inactive are the calls of the source. Rule as the data show it: active = GI50 up to about 1.1 µM and inactive = higher.
Result category, one only: active, inactive

These solved cases illustrate the format of a correct answer.
O=C(O)CCC1COc2ccccc2O1 (stereo not drawn)
inactive
NC(=S)N/N=C/C1NCCC2CCCCC21 (stereo not drawn)
inactive
O=C(C[n+]1ccccc1)N/N=C(\Cc1nc2ccc([N+](=O)[O-])cc2nc1O)C(=O)Nc1cc(Cl)c(Cl)cc1Cl
inactive
Cc1cc(C)cc(Nc2nnc3n2S(=O)(=O)c2cc(C#N)c(Cl)cc2S3)c1
inactive

query: Per the assay record, what outcome was assigned to OC1(C2(c3ccc(Cl)cc3)CCCC2)c2ccccc2C2=NCCN21 (stereo not drawn) ?
result: inactive

query: Also, `CCOC(=O)c1ccc(/N=C/C=C(\Nc2ccc(C(=O)OCC)cc2)c2ccc3ccccc3c2)cc1` please.
result: inactive

query: Also, `O=C1CCc2c3c(c4c([nH]c5ccccc54)c2CC1)C(=O)NC3=O` please.
result: inactive

query: Also, COc1ccc2oc(C(=O)N3CC(CCl)c4ccc([N+](=O)[O-])cc43)cc2c1 (stereo not drawn) please.
result: inactive

query: Also, C[C@]12CC[C@@H]3c4cc(C=O)c(OCc5ccccc5)cc4CC[C@H]3[C@@H]1CCC2OCc1ccccc1 (stereo partly drawn) please.
result: inactive

query: Also, `O=c1c2c3c(sc2nc2n1N=CN(c1ccccc1)C2)CCCC3` please.
result: inactive
